Test system: TGF-β
Test Name: AlphaScreen SureFire p-SMAD3 (Ser423/425) assay, TGF-β-stimulated cells
Assay type: cell-based
Test Context: Mus musculus; p-SMAD3 (Ser423/425) AlphaScreen in cell lysate; MPC-11; TGF-β stimulation; read-out: TGF-β: inhibition of TGF-β signaling, TGF-β pSMAD (MPC-11)

[
  {
    "Compound": "Cc1cccc(-c2nc3occn3c2I)c1 [Compound 138, 5-iodo-6-(m-tolyl)imidazo[2,1-b]oxazole]",
    "IC50": "> 1000 nM"
  },
  {
    "Compound": "OCC1Cn2c(nc(-c3cc(F)cc(F)c3F)c2-c2ccc3nccnc3c2)N1 (stereo not drawn)",
    "IC50": "100 to 1000 nM"
  },
  {
    "Compound": "Fc1ccc(-c2nc3occn3c2-c2ccc3cn[nH]c3c2)cc1",
    "IC50": "100 to 1000 nM"
  },
  {
    "Compound": "Fc1cc(-c2nc3n(c2-c2ccc4ncsc4c2)CCC3)c(F)cc1Cl",
    "IC50": "> 1000 nM"
  },
  {
    "Compound": "Fc1cc(F)c(F)c(-c2nc3n(c2-c2ccc4ncnn4c2)CCC3)c1",
    "IC50": "> 1000 nM"
  },
  {
    "Compound": "CC(C)c1nnc2ccc(-c3c(-c4ccc(F)c(F)c4F)nc4n3CCC4)cn12",
    "IC50": "> 1000 nM"
  },
  {
    "Compound": "Cc1cc(-c2nc3n(c2-c2ccc4ncnn4c2)CCC3)cc(C)c1Cl",
    "IC50": "> 1000 nM"
  },
  {
    "Compound": "COc1c(C)cc(-c2nc3n(c2-c2ccc4nccnc4c2)CCC3)cc1C",
    "IC50": "> 1000 nM"
  },
  {
    "Compound": "Fc1cc(F)c(-c2nc3n(c2-c2cc4cnccc4s2)CCN3)cc1F",
    "IC50": "< 50 nM"
  },
  {
    "Compound": "Cc1cccc(-c2nc3occn3c2-c2ccc3[nH]ncc3c2)c1",
    "IC50": "< 50 nM"
  },
  {
    "Compound": "Fc1cccc(-c2nc3n(c2-c2ccc4c(c2)OCO4)CCC3)c1",
    "IC50": "> 1000 nM"
  },
  {
    "Compound": "Fc1ccc(-c2nc3n(c2-c2ccc4ncsc4c2)CCC3)cc1Cl",
    "IC50": "100 to 1000 nM"
  },
  {
    "Compound": "Cc1cc(-c2nc3n(c2-c2ccc4cn[nH]c4c2)CCC3)c(F)cc1Cl",
    "IC50": "> 1000 nM"
  },
  {
    "Compound": "c1ccc(C2=C(c3ccc4[nH]ncc4c3)C3CCCC3=N2)nc1 (stereo not drawn)",
    "IC50": "< 50 nM"
  },
  {
    "Compound": "Fc1cccc(F)c1-c1nc2n(c1-c1ccc3nccn3c1)CCC2",
    "IC50": "> 1000 nM"
  },
  {
    "Compound": "Fc1cc(F)c(-c2nc3occn3c2-c2ccc3nccn3c2)cc1F",
    "IC50": "50 to 100 nM"
  },
  {
    "Compound": "O=C(OCc1ccccc1)N1CCC2Cn3c(nc(-c4ccc(F)cc4)c3-c3ccc4ncnn4c3)C2C1 (stereo not drawn)",
    "IC50": "> 1000 nM"
  },
  {
    "Compound": "Fc1cc(Cl)c(-c2nc3n(c2-c2ccc4ncnn4c2)CCC3)cc1F",
    "IC50": "100 to 1000 nM"
  }
]
